target.entity: EGFR Δ746-750 mutant (Homo sapiens (Human), UniProt P00533, DEL746-750)
Sequence (P00533 other isoform, or with tags, fused parts or gaps del 1-668/del 746-750 limits assumed): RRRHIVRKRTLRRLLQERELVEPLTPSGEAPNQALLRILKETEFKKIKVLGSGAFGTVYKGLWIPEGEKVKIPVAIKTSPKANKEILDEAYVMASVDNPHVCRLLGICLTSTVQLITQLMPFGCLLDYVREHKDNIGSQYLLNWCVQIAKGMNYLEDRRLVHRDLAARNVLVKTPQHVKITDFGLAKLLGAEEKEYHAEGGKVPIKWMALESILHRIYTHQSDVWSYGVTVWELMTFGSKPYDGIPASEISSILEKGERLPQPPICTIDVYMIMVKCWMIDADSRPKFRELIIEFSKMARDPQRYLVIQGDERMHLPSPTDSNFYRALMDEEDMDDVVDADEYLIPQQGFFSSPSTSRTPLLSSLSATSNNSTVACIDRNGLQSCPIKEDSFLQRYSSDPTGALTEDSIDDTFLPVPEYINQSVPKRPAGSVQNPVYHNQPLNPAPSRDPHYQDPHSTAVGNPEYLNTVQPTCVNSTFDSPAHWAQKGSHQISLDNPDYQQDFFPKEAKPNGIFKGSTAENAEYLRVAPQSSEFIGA
assay.info: HotSpot radiometric kinase assay, EGFR Δ746-750 mutant
run.conditions: 10 μM ATP
Procedure: Biochemical Assays for Inhibition of Wild-Type and Mutant EGFRs Briefly, specific kinase/substrate pairs along with required cofactors were prepared in reaction buffer; 20 mM Hepes pH 7.5, 10 mM […], 1 mM EGTA, 0.02% Brij35, 0.02 mg/ml BSA, 0.1 mM Na3VO4, 2 mM DTT, 1% DMSO. Compounds were delivered into the reaction, followed […] later by addition of a mixture of ATP (Sigma, St. Louis MO) and ^33P ATP (Perkin Elmer, Waltham MA) to a final concentration of 10 μM. […]
pIC50: −log10 of the molar value.
Give class 1 when the value for pIC50 is at least 7. Give class 0 when it is less.

Evaluate Cc1nn(C)c2c1/C=C/c1n[nH]c3ccc(cc13)-c1cnn(C)c1CN(C)[C@@H](C)CO2 : pIC50 at minimum 7? class 1

Evaluate Cc1c2c(nn1C)/C=C/c1n[nH]c3ccc(cc13)-c1cnn(C)c1O[C@@H](C)CN(C(C)C)C2 : pIC50 at minimum 7? class 1

Evaluate CCN1Cc2c(c(OC(C)C)nn2CC(C)(C)O)/C=C/c2n[nH]c3ccc(cc23)-c2cnn(C)c2O[C@@H](C)C1 : pIC50 at minimum 7? class 1

Evaluate CC(C)c1noc2c1/C=C/c1n[nH]c3ccc(cc13)-c1cnn(C)c1O[C@@H](C)CN(C)C2 : pIC50 at minimum 7? class 0

Evaluate COCc1nn(C)c2c1/C=C/c1n[nH]c3ccc(cc13)-c1cnn(C)c1OCCCO2 : pIC50 at minimum 7? class 0

----------
target.entity: EGFR (D770_N771insNPG) (Homo sapiens (Human), UniProt P00533, INS770NPG)
Sequence (P00533 other isoform, or with tags, fused parts or gaps del 1-668/ins NPG behind 770 limits assumed): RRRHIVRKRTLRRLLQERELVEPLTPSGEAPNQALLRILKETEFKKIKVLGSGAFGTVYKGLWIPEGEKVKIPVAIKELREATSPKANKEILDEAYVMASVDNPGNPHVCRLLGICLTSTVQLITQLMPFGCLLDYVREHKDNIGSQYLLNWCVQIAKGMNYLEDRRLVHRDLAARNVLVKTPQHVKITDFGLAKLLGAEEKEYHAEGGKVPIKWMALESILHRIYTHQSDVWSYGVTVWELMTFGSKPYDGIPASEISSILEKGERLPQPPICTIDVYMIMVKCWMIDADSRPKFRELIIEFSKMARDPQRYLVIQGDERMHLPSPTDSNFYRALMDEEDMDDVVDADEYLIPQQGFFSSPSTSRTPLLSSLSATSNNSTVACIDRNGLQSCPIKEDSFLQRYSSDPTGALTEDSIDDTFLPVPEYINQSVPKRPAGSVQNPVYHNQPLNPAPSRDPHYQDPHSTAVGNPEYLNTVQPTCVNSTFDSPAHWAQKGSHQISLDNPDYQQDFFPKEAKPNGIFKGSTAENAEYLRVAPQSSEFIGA
assay.info: HotSpot radiometric kinase assay, EGFR (D770_N771insNPG)
run.conditions: 10 μM ATP, read-out: EGFR (Δ770_N771insNPG) IC50
Each entry below carries its reported pIC50.
Please treat pIC50 as minus the base-10 logarithm of the molar concentration.

{"smiles.record": "CCN1Cc2c(c(OC(C)C)nn2C[C@H](C)O)/C=C/c2n[nH]c3ccc(cc23)-c2cnn(C)c2O[C@H](C)C1", "assay.readout": "pIC50", "readout.value": 6.78}
{"smiles.record": "CCOc1nn([C@H](C)CO)c2c1/C=C/c1n[nH]c3ccc(cc13)-c1cnn(C)c1O[C@@H](C)CN(C)C2", "assay.readout": "pIC50", "readout.value": 7.07}
{"smiles.record": "COCc1nn(CCO)c2c1/C=C/c1n[nH]c3ccc(cc13)-c1cnn(C)c1O[C@@H](C)CN(C)C2", "assay.readout": "pIC50", "readout.value": 6.64}

Briefly, pIC50 measured for CCN1Cc2c(c(C)nn2C)/C=C/c2n[nH]c3ccc(cc23)-c2cnn(C)c2O[C@@H](C)C1 : 7.72

Briefly, pIC50 measured for CCOc1nn(CCO)c2c1/C=C/c1n[nH]c3ccc(cc13)-c1cnn(C)c1O[C@@H](CC)CN(C)C2 : 7.60

Briefly, pIC50 measured for CCc1nn(C)c2c1/C=C/c1n[nH]c3ccc(cc13)-c1cnn(C)c1CN(C)CCO2 : 6.95
